Entry source: patent US20070004660A1

Assay System: isolated kinase domain of the human FLT3 receptor (a.a. 571-993) (Homo sapiens)
Construct: human FLT3 receptor (a.a. 571-993)
Sequence (P36888 571-993): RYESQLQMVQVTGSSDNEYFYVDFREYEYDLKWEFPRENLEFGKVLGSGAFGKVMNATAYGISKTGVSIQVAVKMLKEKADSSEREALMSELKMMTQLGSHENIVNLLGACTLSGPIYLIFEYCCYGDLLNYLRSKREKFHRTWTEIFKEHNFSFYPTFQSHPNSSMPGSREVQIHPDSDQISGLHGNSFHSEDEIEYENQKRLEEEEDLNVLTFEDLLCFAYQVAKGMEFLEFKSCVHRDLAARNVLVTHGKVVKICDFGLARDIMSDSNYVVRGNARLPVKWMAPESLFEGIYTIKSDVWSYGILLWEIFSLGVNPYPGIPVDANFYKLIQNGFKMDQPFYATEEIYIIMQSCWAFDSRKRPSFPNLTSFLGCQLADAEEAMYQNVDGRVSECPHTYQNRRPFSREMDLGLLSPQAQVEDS
Test Method Notes: FLT3 fluorescence polarization kinase assay
Assay Setup: 150 uM ATP; uncertainty ±10%
Would you kindly list IC50 for each of these compounds?
Kindly provide the numeric value in nM only, without the unit symbol.

So for "CC(=O)N1CCC(COc2ccc3c(C4CCN(C(=O)Nc5ccc(N6CCCC6)cc5)CC4)ncnc3c2)CC1" , the logged IC50 turned out to be 11

What the record says about "CC(C)c1ccc(NC(=O)N2CCC(c3ncnc4ccccc34)CC2)cc1" : IC50 is 55

IC50 reported for this compound "COc1cc2ncnc(C3CCN(C(=O)Nc4ccc(-c5cncnc5)cc4)CC3)c2cc1OC" : 2000

Per the records, this compound ( "CC(C)c1ccc(NC(=O)N2CCC(c3ccnc4ccccc34)CC2)cc1" ) has IC50 equal to 94

What the record says about "COc1ccc2ncnc(C3CCN(C(=O)Nc4ccc(OC(C)C)cc4)CC3)c2c1" : IC50 is 297

For this compound ( "CN1CCN(CCCOc2ccc3c(C4CCN(C(=O)Nc5ccc(N6CCOCC6)c(F)c5)CC4)ncnc3c2)CC1" ), measured IC50 is 7

Lookup result for "CN1CCN(CCOc2ccc3c(C4CCN(C(=O)Nc5ccc(N6CCCC6)cc5)CC4)ncnc3c2)CC1=O" ; measured IC50: 90

Measured IC50 of "COc1cc2ncnc(C3CCN(C(=O)Nc4ccc(N5CCOCC5)cc4)CC3)c2cc1OC" : 62

For this compound ( "CC(C)c1ccc(NC(=O)N2CCC(c3ncnc4cc(Cl)ccc34)CC2)cc1" ), measured IC50 is 35

The compound identified as "CN1CCC[C@H]1COc1ccc2c(C3CCN(C(=O)Nc4ccc(N5CCCC5)cc4)CC3)ncnc2c1" registered its IC50 at 62

IC50 recorded for this compound, "O=C1CCCN1CCCOc1ccc2c(C3CCN(C(=O)Nc4ccc(N5CCOCC5)nc4)CC3)ncnc2c1" , is 27

Record summary for "COc1cc2ncnc(C3CCN(CC(=O)Nc4ccc(C(C)C)cc4)CC3)c2cc1OC" : reported IC50 = 13

Lab book: IC50 of "CC(C)Oc1ccc(NC(=O)N2CCC(c3ncnc4cc(N(C)C)ccc34)CC2)cc1" noted as 80

Query "CS(=O)(=O)NCCCOc1ccc2c(C3CCN(C(=O)Nc4ccc(N5CCOCC5)nc4)CC3)ncnc2c1" yields IC50 of 32

The recorded IC50 for "CN(C)[C@@H]1CCN(c2ccc3c(C4CCN(C(=O)Nc5ccc(N6CCOCC6)cc5)CC4)ncnc3c2)C1" is 14

get_value(item= "CCN(CC)CCOc1ccc2c(C3CCN(C(=O)Nc4ccc(OC(C)C)cc4)CC3)ncnc2c1" , readout=IC50) returns 47

Recorded IC50 (compound "COC[C@H]1CCCN1c1ccc2c(C3CCN(C(=O)Nc4ccc(N5CCOCC5)cc4)CC3)ncnc2c1" ): 626

Memo: "COc1cc2ncnc(C3CCN(C(=O)Nc4ccc(C5CCN(C(=O)OC(C)(C)C)CC5)cc4)CC3)c2cc1OC" , reported IC50: 2000

Lab note: measured IC50 of "COc1cc2ncnc(C3CCN(C(=O)Nc4ccc5[nH]ccc5c4)CC3)c2cc1OC" was 390

Form: compound = "COc1cc2ncnc(C3CCN(C(=O)Nc4ccc(-n5ccnc5)cc4)CC3)c2cc1OC" ; IC50 = 3900

Please fill in: IC50 reported for "CC(C)Oc1ccc(NC(=O)N2CCC(c3ncnc4ccc(N5CCN(C)CC5)cc34)CC2)cc1" = 436

For "CS(=O)(=O)CCNc1ccc2c(C3CCN(C(=O)Nc4ccc(N5CCOCC5)cc4)CC3)ncnc2c1" the compound record lists IC50 as 274

Looking up "CN1CCC(COc2ccc3c(C4CCN(C(=O)Nc5ccc(N6CCCC6)nc5)CC4)ncnc3c2)CC1" , I see its IC50 listed as 1

# IC50 (compound: "CN1CCN(c2ccc3c(C4CCN(C(=O)Nc5ccc(N6CCCC6)nc5)CC4)ncnc3c2)CC1" ) is 14

# IC50 (compound: "O=C1CCCN1CCCOc1ccc2c(C3CCN(C(=O)Nc4ccc(N5CCOCC5)cc4)CC3)ncnc2c1" ) is 37

Lab note: measured IC50 of "COc1cc2ncnc(C3CCN(C(=O)Nc4ccc(Oc5ccccc5)cc4)CC3)c2cc1OC" was 35

Reported IC50 of "CN(C)C(=O)N1CCN(CCCOc2ccc3c(C4CCN(C(=O)Nc5ccc(N6CCOCC6)cc5)CC4)ncnc3c2)CC1" : 36

Summary for this compound, "O=C(Nc1ccc(N2CCCC2)cc1)N1CCC(c2ncnc3cc(OCCN4CCC[C@H]4CO)ccc23)CC1" : IC50 is 18

Briefly, IC50 measured for "O=C(Nc1ccc(N2CCCC2)cc1)N1CCC(c2ncnc3cc(OCCO)ccc23)CC1" : 32

Item: "CC(C)Oc1ccc(NC(=O)N2CCC(c3ncnc4ccc(I)cc34)CC2)cc1" | IC50: 46

Form field IC50, entry "COc1ccc2c(C3CCN(C(=O)Nc4ccc(OC(C)C)cc4)CC3)ncnc2c1" : 21
